Data origin: patent US20250027068

- TARGET_OR_TEST_SYSTEM: pooled human IgG (human IgG1, 2, 3 and 4)
MEASURED_PROPERTY: Enzyme Activity Endpoint Assay (purified): scIgG (ng/µL)
Unit ng/µL implied. Number only.

Dear colleague, I am looking for the recorded Enzyme Activity Endpoint Assay (purified): scIgG of the following protein: PRT-647 (protein) MQITSVWTKGVTPLTPEQFRYNNEDVIHAPYLAHQGWYDITKAFDGKDNLLCGAATAGNMLHWWFDQNKTEIEAYLSKHPEKQKIIFNNQELFDLKAAIDTKDSQTNSQLFNYFRDKAFPNLSARQLGVMPDLVLDMFINGYYLNVFKTQSTDVNRPYQDKDKRGGIFDAVFTRGDQTTLLTNRYDLYDKGLNDISTIIKQELTEGRALALSHTYANVSISHVINLWGADFNAEGNLEAIYVTDSDANASIGMKKYFVGINAHGHVAISAKKIEGENIGAQVLGLFTLSSGKDIWQKLSLEHHHHHH
330
